tested on: Escherichia coli TOP10; assay: shrunken log2 fold change of peptide-encoding DNA abundance (4.5 h post-induction vs induction); higher = less antimicrobial activity (less host growth inhibition); settings: time post-induction: 4.5 h; library: site-saturation at positions 5, 18, 19, 20
Values of shrunken log2 fold change greater than or equal to -0.05 map to yes; values below map to no.

[
  {
    "Sequence code": "RRIRHRPPRLPRPRPRPLPKPRP",
    "Answer label": "yes"
  },
  {
    "Sequence code": "RRIRVRPPRLPRPRPRPEECPRP",
    "Answer label": "yes"
  },
  {
    "Sequence code": "RRIRLRPPRLPRPRPRPAFMPRP",
    "Answer label": "no"
  },
  {
    "Sequence code": "RRIRYRPPRLPRPRPRPAQGPRP",
    "Answer label": "yes"
  },
  {
    "Sequence code": "RRIRWRPPRLPRPRPRPVERPRP",
    "Answer label": "yes"
  },
  {
    "Sequence code": "RRIRYRPPRLPRPRPRPAFFPRP",
    "Answer label": "no"
  },
  {
    "Sequence code": "RRIRYRPPRLPRPRPRPYCGPRP",
    "Answer label": "no"
  },
  {
    "Sequence code": "RRIRLRPPRLPRPRPRPGTRPRP",
    "Answer label": "yes"
  }
]

----------
system: Escherichia coli TOP10; experiment: shrunken log2 fold change of peptide-encoding DNA abundance (4.5 h post-induction vs induction); higher = less antimicrobial activity (less host growth inhibition); settings: time post-induction: 4.5 h; library: site-saturation at positions 5, 18, 19, 20;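 note: peptides expressed intracellularly from a pBAD plasmid library in pooled LB shake-flask culture, induced with 0.3% L-arabinose, DNA abundance read by NGS, three biological replicates, DESeq2 with apeglm shrinkage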

[
  {
    "Sequence code": "RRIRWRPPRLPRPRPRPGDEPRP",
    "shrunken log2 fold change": 0.0372
  },
  {
    "Sequence code": "RRIRFRPPRLPRPRPRPAPKPRP",
    "shrunken log2 fold change": 0.379
  },
  {
    "Sequence code": "RRIRKRPPRLPRPRPRPAKPPRP",
    "shrunken log2 fold change": 0.464
  },
  {
    "Sequence code": "RRIRIRPPRLPRPRPRPDAWPRP",
    "shrunken log2 fold change": 0.32
  },
  {
    "Sequence code": "RRIRHRPPRLPRPRPRPCYDPRP",
    "shrunken log2 fold change": -0.00778
  },
  {
    "Sequence code": "RRIRYRPPRLPRPRPRPWDLPRP",
    "shrunken log2 fold change": 0.0112
  },
  {
    "Sequence code": "RRIRNRPPRLPRPRPRPARYPRP",
    "shrunken log2 fold change": 0.0763
  },
  {
    "Sequence code": "RRIRSRPPRLPRPRPRPFCKPRP",
    "shrunken log2 fold change": -0.449
  },
  {
    "Sequence code": "RRIRQRPPRLPRPRPRPKRDPRP",
    "shrunken log2 fold change": 0.114
  },
  {
    "Sequence code": "RRIRYRPPRLPRPRPRPWCLPRP",
    "shrunken log2 fold change": -0.634
  },
  {
    "Sequence code": "RRIRVRPPRLPRPRPRPWDPPRP",
    "shrunken log2 fold change": -0.301
  },
  {
    "Sequence code": "RRIRKRPPRLPRPRPRPCEYPRP",
    "shrunken log2 fold change": 0.0394
  },
  {
    "Sequence code": "RRIRTRPPRLPRPRPRPFERPRP",
    "shrunken log2 fold change": -0.0347
  },
  {
    "Sequence code": "RRIRIRPPRLPRPRPRPSYFPRP",
    "shrunken log2 fold change": -0.83
  },
  {
    "Sequence code": "RRIRARPPRLPRPRPRPAPMPRP",
    "shrunken log2 fold change": 0.799
  }
]
